These measurements were taken from ChEMBL document CHEMBL2384952.

# Test system: Vero
# Method Summary: Cytotoxicity against African green monkey Vero cells at 98 ug/mL by neutral red dye uptake assay relative to control
# Assay type: cell-based
# Run Parameters: chlorocebus sabaeus
Entries whose Cell viability is below 90% take class 1; entries at or above 90% take class 0.

>  <Compound>
O=C1CSC(c2ccc(F)cc2)N1CCN1CCCCC1 (stereo not given)

>  <Classification>
class 1

$$$$
>  <Compound>
O=C1CSC(c2ccc([N+](=O)[O-])cc2)N1CCN1CCCCC1 (stereo not given)

>  <Classification>
class 1

$$$$
>  <Compound>
Cc1ccc(C2SCC(=O)N2CCN2CCCCC2)cc1 (stereo not given)

>  <Classification>
class 0

$$$$

Exercise: Cell viability strictly < 90% for this compound? O=C1CSC(c2cccc(O)c2)N1CCN1CCCCC1 (stereo not given)
Solution: class 0

Exercise: Cell viability strictly < 90% for this compound? O=C1CSC(c2ccc(O)cc2)N1CCN1CCCCC1 (stereo not given)
Solution: class 0

Exercise: Cell viability strictly < 90% for this compound? O=C1CSC(c2cccc([N+](=O)[O-])c2)N1CCN1CCCCC1 (stereo not given)
Solution: class 0

Exercise: Cell viability strictly < 90% for this compound? O=C1CSC(c2cccc(Cl)c2)N1CCN1CCCCC1 (stereo not given)
Solution: class 0

Exercise: Cell viability strictly < 90% for this compound? COc1cccc(C2SCC(=O)N2CCN2CCCCC2)c1 (stereo not given)
Solution: class 1

Exercise: Cell viability strictly < 90% for this compound? O=C1CSC(c2ccc(Cl)cc2)N1CCN1CCCCC1 (stereo not given)
Solution: class 1

---

# Test system: Vero
# Method Summary: Cytotoxicity against African green monkey Vero cells at 3150 ug/mL by neutral red dye uptake assay relative to control
# Assay type: cell-based
# Run Parameters: chlorocebus sabaeus
Entries whose Cell viability is below 10% take 1; entries at or above 10% take 0.

>  <Molecule>
O=C1CSC(c2ccc(Cl)cc2)N1CCN1CCCCC1 (stereo unspecified)

>  <Classification>
0

$$$$
>  <Molecule>
O=C1CSC(c2c(Cl)cccc2Cl)N1CCN1CCCCC1 (stereo unspecified)

>  <Classification>
1

$$$$
>  <Molecule>
O=C1CSC(c2cccc(F)c2)N1CCN1CCCCC1 (stereo unspecified)

>  <Classification>
0

$$$$
>  <Molecule>
O=C1CSC(c2ccc(F)cc2)N1CCN1CCCCC1 (stereo unspecified)

>  <Classification>
0

$$$$

Read the next record carefully.
Exercise: Cell viability strictly < 10% for this molecule? O=C1CSC(c2ccccc2[N+](=O)[O-])N1CCN1CCCCC1 (stereo unspecified)
Solution: 0

---

# Test system: Candida albicans
# Method Summary: Antifungal activity against Candida albicans after 48 hrs by CLSI M27A3 broth microdilution method
# Type: functional
Observed Property: MFC
Remember to follow the number with its unit.

Below, 3 compounds whose answers are already recorded.
>  <Compound>
O=C1CSC(c2c(Cl)cccc2Cl)N1CCN1CCCCC1 (configuration not stated)

>  <System Tested>
Candida albicans

>  <Result>
75 µg/mL

$$$$
>  <Compound>
O=C1CSC(c2cccc(Cl)c2)N1CCN1CCCCC1 (configuration not stated)

>  <System Tested>
Candida albicans

>  <Result>
62 µg/mL

$$$$
>  <Compound>
O=C1CSC(c2ccc(Cl)cc2)N1CCN1CCCCC1 (configuration not stated)

>  <System Tested>
Candida albicans

>  <Result>
62 µg/mL

$$$$

Tested on Candida albicans: O=C1CSC(c2ccc([N+](=O)[O-])cc2)N1CCN1CCCCC1 (configuration not stated) . Observed MFC: 62 µg/mL

Tested on Candida albicans: COc1ccc(C2SCC(=O)N2CCN2CCCCC2)cc1 (configuration not stated) . Observed MFC: 75 µg/mL

Tested on Candida albicans: COc1cccc(C2SCC(=O)N2CCN2CCCCC2)c1 (configuration not stated) . Observed MFC: 100 µg/mL

Tested on Candida albicans: COc1ccccc1C1SCC(=O)N1CCN1CCCCC1 (configuration not stated) . Observed MFC: 100 µg/mL

Tested on Candida albicans: O=C1CSC(c2ccccc2F)N1CCN1CCCCC1 (configuration not stated) . Observed MFC: 100 µg/mL

---

# System: Vero
# Method Summary: Cytotoxicity against African green monkey Vero cells at 197 ug/mL by neutral red dye uptake assay relative to control
# Type: cell-based
# Run Parameters: chlorocebus sabaeus
Entries whose Cell viability is below 80% take condition met; entries at or above 80% take condition not met.

Worked examples follow.
>  <Compound>
O=C1CSC(c2ccccc2[N+](=O)[O-])N1CCN1CCCCC1 (stereo not given)

>  <Classification>
condition not met

$$$$
>  <Compound>
Cc1ccc(C2SCC(=O)N2CCN2CCCCC2)cc1 (stereo not given)

>  <Classification>
condition not met

$$$$
>  <Compound>
O=C1CSC(c2ccccc2Cl)N1CCN1CCCCC1 (stereo not given)

>  <Classification>
condition met

$$$$
>  <Compound>
COc1ccccc1C1SCC(=O)N1CCN1CCCCC1 (stereo not given)

>  <Classification>
condition met

$$$$
>  <Compound>
O=C1CSC(c2cccc(O)c2)N1CCN1CCCCC1 (stereo not given)

>  <Classification>
condition not met

$$$$

Exercise: Cell viability strictly < 80% for this compound? COc1ccc(C2SCC(=O)N2CCN2CCCCC2)cc1 (stereo not given)
Solution: condition not met

Exercise: Cell viability strictly < 80% for this compound? O=C1CSC(c2cccc(Cl)c2)N1CCN1CCCCC1 (stereo not given)
Solution: condition met

Exercise: Cell viability strictly < 80% for this compound? O=C1CSC(c2ccc(O)cc2)N1CCN1CCCCC1 (stereo not given)
Solution: condition not met

Exercise: Cell viability strictly < 80% for this compound? O=C1CSC(c2cccc([N+](=O)[O-])c2)N1CCN1CCCCC1 (stereo not given)
Solution: condition met

Exercise: Cell viability strictly < 80% for this compound? O=C1CSC(c2ccccc2F)N1CCN1CCCCC1 (stereo not given)
Solution: condition met

---

# Test system: Vero
# Method Summary: Cytotoxicity against African green monkey Vero cells at 3150 ug/mL by neutral red dye uptake assay relative to control
# Assay type: cell-based
# Run Parameters: chlorocebus sabaeus
Observed Property: Cell viability
Remember to follow the number with its unit.

>  <Compound>
COc1ccc(C2SCC(=O)N2CCN2CCCCC2)cc1 (stereo unspecified)

>  <Result>
11%

$$$$
>  <Compound>
O=C1CSC(c2cccc(Cl)c2)N1CCN1CCCCC1 (stereo unspecified)

>  <Result>
15%

$$$$
>  <Compound>
O=C1CSC(c2cccc(O)c2)N1CCN1CCCCC1 (stereo unspecified)

>  <Result>
11%

$$$$

So, O=C1CSC(c2cccc([N+](=O)[O-])c2)N1CCN1CCCCC1 (stereo unspecified) ? Its Cell viability was 2%

So, Cc1ccc(C2SCC(=O)N2CCN2CCCCC2)cc1 (stereo unspecified) ? Its Cell viability was 12%

So, COc1ccccc1C1SCC(=O)N1CCN1CCCCC1 (stereo unspecified) ? Its Cell viability was 5%

---

# Test system: Vero
# Method Summary: Cytotoxicity against African green monkey Vero cells at 1575 ug/mL by neutral red dye uptake assay relative to control
# Format: cell-based
# Run Parameters: chlorocebus sabaeus
Reported Cell viability by item:
Could you give me the number in %? Just the number is fine.

Below, 3 compounds whose answers are already recorded.
>  <Compound>
Cc1ccc(C2SCC(=O)N2CCN2CCCCC2)cc1 (stereo unspecified)

>  <Cell viability [%]>
13

$$$$
>  <Compound>
O=C1CSC(c2cccc(O)c2)N1CCN1CCCCC1 (stereo unspecified)

>  <Cell viability [%]>
13

$$$$
>  <Compound>
O=C1CSC(c2ccc(Cl)cc2)N1CCN1CCCCC1 (stereo unspecified)

>  <Cell viability [%]>
13

$$$$

So, O=C1CSC(c2ccccc2Cl)N1CCN1CCCCC1 (stereo unspecified) ? Its Cell viability was 16

So, O=C1CSC(c2c(Cl)cccc2Cl)N1CCN1CCCCC1 (stereo unspecified) ? Its Cell viability was 10

So, O=C1CSC(c2cccc(Cl)c2)N1CCN1CCCCC1 (stereo unspecified) ? Its Cell viability was 20

So, O=C1CSC(c2ccc([N+](=O)[O-])cc2)N1CCN1CCCCC1 (stereo unspecified) ? Its Cell viability was 15

So, COc1ccc(C2SCC(=O)N2CCN2CCCCC2)cc1 (stereo unspecified) ? Its Cell viability was 11

So, O=C1CSC(c2ccc(F)cc2)N1CCN1CCCCC1 (stereo unspecified) ? Its Cell viability was 14

So, COc1ccccc1C1SCC(=O)N1CCN1CCCCC1 (stereo unspecified) ? Its Cell viability was 17

So, O=C1CSC(c2ccccc2[N+](=O)[O-])N1CCN1CCCCC1 (stereo unspecified) ? Its Cell viability was 24

So, O=C1CSC(c2ccc(O)cc2)N1CCN1CCCCC1 (stereo unspecified) ? Its Cell viability was 12

So, COc1cccc(C2SCC(=O)N2CCN2CCCCC2)c1 (stereo unspecified) ? Its Cell viability was 11

So, O=C1CSC(c2cccc([N+](=O)[O-])c2)N1CCN1CCCCC1 (stereo unspecified) ? Its Cell viability was 7

So, O=C1CSC(c2cccc(F)c2)N1CCN1CCCCC1 (stereo unspecified) ? Its Cell viability was 17

So, O=C1CSC(c2ccccc2F)N1CCN1CCCCC1 (stereo unspecified) ? Its Cell viability was 10
